measuredTarget: Intestinal-type alkaline phosphatase (Homo sapiens) (UniProt P09923)
Sequence (P09923 whole entry, looked up): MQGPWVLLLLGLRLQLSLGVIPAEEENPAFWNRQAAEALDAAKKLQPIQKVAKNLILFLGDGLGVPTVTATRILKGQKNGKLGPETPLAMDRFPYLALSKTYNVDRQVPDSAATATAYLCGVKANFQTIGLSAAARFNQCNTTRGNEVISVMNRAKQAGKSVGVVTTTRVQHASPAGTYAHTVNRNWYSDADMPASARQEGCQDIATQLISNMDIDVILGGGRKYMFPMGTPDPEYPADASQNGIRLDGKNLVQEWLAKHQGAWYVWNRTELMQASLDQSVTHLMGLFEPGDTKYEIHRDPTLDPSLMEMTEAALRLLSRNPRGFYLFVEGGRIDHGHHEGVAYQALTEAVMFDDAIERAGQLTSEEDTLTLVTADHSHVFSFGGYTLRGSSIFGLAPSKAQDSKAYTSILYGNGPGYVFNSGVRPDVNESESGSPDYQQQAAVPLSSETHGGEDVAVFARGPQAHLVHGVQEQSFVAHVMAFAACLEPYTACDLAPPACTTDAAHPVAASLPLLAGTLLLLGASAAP
experimentSummary: human IAP activators, primary screen, biochemical, luminescence, uHTS (AID 2524)
conditionSummary: purified human IAP, CDP-Star luminescence, 30 min; at 10 µM; stronger effect = higher value; 1 = vehicle-only enzyme, 0 = enzyme-free background
About 540 (0.16%) of roughly 330,000 compounds were called active. The full list was thinned out, with actives kept by preference.
Give measured activation factor for each item. Keep answers brief.
No unit in the answer, please; the number alone is enough.

Prompt: So what does the record say about activation factor for `Nc1ncnc2c1ncn2[C@@H]1O[C@H](CNCc2cccn2-c2nccs2)[C@@H](O)[C@H]1O` ?
Response: 0.901

Prompt: So what does the record say about activation factor for CC(CCN1CCN=C1N(C)C)c1ccccc1 (configuration not stated) ?
Response: 0.995

Prompt: So what does the record say about activation factor for `O=C(NNC(=S)Nc1ccccc1)c1cccc(S(=O)(=O)N2CCOCC2)c1` ?
Response: 2.01

Prompt: So what does the record say about activation factor for `COc1ccc(C(=O)NNC(=O)c2cc(C)[nH]n2)cc1` ?
Response: 1.61

Prompt: So what does the record say about activation factor for `N#Cc1ccccc1CN1C(=O)S/C(=C/c2cccn2-c2cccc(C(=O)O)c2)C1=O` ?
Response: 1.06

Prompt: So what does the record say about activation factor for `CN1C(=O)C2(OCCCO2)c2cc(Cl)ccc21` ?
Response: 0.939

Prompt: So what does the record say about activation factor for `Cn1c(=O)c2c(nc(NCCc3ccccc3)n2Cc2ccccc2)n(C)c1=O` ?
Response: 0.914

Prompt: So what does the record say about activation factor for `CCCCc1c(O)nc2n(c1=O)CCS2` ?
Response: 0.971

Prompt: So what does the record say about activation factor for `COc1cc(NC(=O)NCC2CCN(Cc3ccc(C)cc3)CC2)cc(OC)c1OC` ?
Response: 2.12

Prompt: So what does the record say about activation factor for `Cn1c(=O)c2c(nc(N/N=C/c3cccs3)n2Cc2ccc(Br)cc2)n(C)c1=O` ?
Response: 2.42

Prompt: So what does the record say about activation factor for `Cc1ccccc1NC(=O)Cn1cc(C(=O)C2CC2)c2ccccc21` ?
Response: 1.02

Prompt: So what does the record say about activation factor for `CCn1cc(CN2CCC(C(=O)Nc3cccc(-c4cccc(Cl)c4)c3)CC2)cn1` ?
Response: 1.12

Prompt: So what does the record say about activation factor for `COc1cc(CN2CCC(n3nccc3NC(=O)CCCc3ccccc3)CC2)ccc1O` ?
Response: 1.47

Prompt: So what does the record say about activation factor for `CN(C)c1nccc(NCc2ccccc2)c1C#N` ?
Response: 1.01

Prompt: So what does the record say about activation factor for `CCN(CC(=O)Nc1c(F)cccc1F)C(=O)C1CCC1` ?
Response: 1.05

Prompt: So what does the record say about activation factor for CCCc1ccc(C(=O)COC(=O)CN2C(=O)NC3(CCCCC3C)C2=O)cc1 (configuration not stated) ?
Response: 1.11

Prompt: So what does the record say about activation factor for `O=C(COC(=O)c1ccccc1F)Nc1cc(S(=O)(=O)N2CCOCC2)ccc1N1CCCC1` ?
Response: 1.03

Prompt: So what does the record say about activation factor for O=C(OCC1O[C@@H](OC(=O)c2cc(O)c(O)c(O)c2)[C@@H](OC(=O)c2cc(O)c(O)c(O)c2)[C@@H](OC(=O)c2cc(O)c(O)c(O)c2)[C@@H]1OC(=O)c1cc(O)c(O)c(O)c1)c1cc(O)c(O)c(O)c1 (some centres not stated) ?
Response: 3.98

Prompt: So what does the record say about activation factor for `O=C(NCc1ccccn1)Nc1ccc(Cl)cc1` ?
Response: 1.08

Prompt: So what does the record say about activation factor for `C=Cn1cc[n+](CC(=O)c2ccc(OC)c(OC)c2)c1` ?
Response: 0.894

Prompt: So what does the record say about activation factor for `O=[N+]([O-])c1ccc2nc(-c3ccccn3)[nH]c2c1` ?
Response: 1.4

Prompt: So what does the record say about activation factor for `Cc1cccc(NS(=O)(=O)c2ccc(C)c(C(N)=O)c2)c1` ?
Response: 1.05
